Data provenance: ChEMBL document CHEMBL5518181

# procedure text: Cytotoxicity against human HepG2 cells incubated for 40 hrs by celltiter-glo luminescent cell viability assay
# Type: toxicity, cell-based
quantity kind: IC50 at 40 h

1. CC[C@H](C)[C@@H](NC(=O)[C@@H](NC(=O)[C@H](CCC(=O)O)NC(=O)[C@H](Cc1ccccc1)NC(=O)[C@@H](CCN)NC(=O)[C@H](CCN)NC(=O)[C@H](CO)NC(=O)[C@@H](Cc1c[nH]c2ccccc12)NC(=O)[C@@H](CO)NC(=O)CNC(=O)[C@@H](CCN)NC(=O)[C@H](N)C(C)(C)C)C(C)C)C(=O)N[C@@H](C)C(=O)O	33 µg/mL
2. CC[C@H](C)[C@@H](NC(=O)[C@@H](NC(=O)[C@H](CCC(=O)O)NC(=O)[C@H](Cc1ccccc1)NC(=O)[C@@H](CCN)NC(=O)[C@H](CCN)NC(=O)[C@H](CO)NC(=O)[C@@H](Cc1c[nH]c2ccccc12)NC(=O)[C@@H](CO)NC(=O)CNC(=O)[C@@H](CCN)NC(=O)[C@H](NC(=O)[C@@H](N)C(C)C)C(C)C)C(C)C)C(=O)N[C@@H](C)C(=O)O	87 µg/mL
3. CC[C@H](C)[C@@H](NC(=O)[C@@H](NC(=O)[C@H](CCC(=O)O)NC(=O)[C@H](Cc1ccccc1)NC(=O)[C@@H](CCN)NC(=O)[C@H](CCN)NC(=O)[C@H](C)NC(=O)[C@@H](Cc1c[nH]c2ccccc12)NC(=O)[C@@H](CO)NC(=O)CNC(=O)[C@@H](CCN)NC(=O)[C@H](N)C(C)C)C(C)C)C(=O)N[C@@H](C)C(=O)O	> 170 µg/mL
4. CC[C@H](C)[C@@H](NC(=O)[C@@H](NC(=O)[C@H](CO)NC(=O)[C@H](Cc1ccccc1)NC(=O)[C@@H](CCN)NC(=O)[C@H](CCN)NC(=O)[C@H](CO)NC(=O)[C@@H](Cc1c[nH]c2ccccc12)NC(=O)[C@@H](CO)NC(=O)CNC(=O)[C@@H](CCN)NC(=O)[C@H](N)C(C)C)C(C)C)C(=O)N[C@@H](C)C(=O)O	> 170 µg/mL
5. CC[C@H](C)[C@@H](NC(=O)[C@@H](NC(=O)[C@H](CCC(=O)O)NC(=O)[C@H](Cc1ccccc1)NC(=O)[C@@H](C)NC(=O)[C@H](CCN)NC(=O)[C@H](CO)NC(=O)[C@@H](Cc1c[nH]c2ccccc12)NC(=O)[C@@H](CO)NC(=O)CNC(=O)[C@@H](CCN)NC(=O)[C@H](N)C(C)C)C(C)C)C(=O)N[C@@H](C)C(=O)O	> 170 µg/mL
6. CC[C@H](C)[C@@H](NC(=O)[C@@H](NC(=O)[C@H](C)NC(=O)[C@H](Cc1ccccc1)NC(=O)[C@@H](CCN)NC(=O)[C@H](CCN)NC(=O)[C@H](CO)NC(=O)[C@@H](Cc1c[nH]c2ccccc12)NC(=O)[C@@H](CO)NC(=O)CNC(=O)[C@@H](CCN)NC(=O)[C@H](NC(=O)[C@H](C)N)C(C)C)C(C)C)C(=O)N[C@@H](C)C(=O)O	67 µg/mL
7. CC[C@H](N)C(=O)N[C@@H](C(=O)N[C@H](CCN)C(=O)NCC(=O)N[C@H](CO)C(=O)N[C@H](Cc1c[nH]c2ccccc12)C(=O)N[C@@H](CO)C(=O)N[C@@H](CCN)C(=O)N[C@H](CCN)C(=O)N[C@@H](Cc1ccccc1)C(=O)N[C@@H](CCC(=O)O)C(=O)N[C@H](C(=O)N[C@@H](C(=O)N[C@@H](C)C(=O)O)[C@@H](C)CC)C(C)C)C(C)C	95 µg/mL
8. CC[C@H](C)[C@@H](NC(=O)[C@@H](NC(=O)[C@H](CCC(=O)O)NC(=O)[C@H](Cc1ccccc1)NC(=O)[C@@H](CCN)NC(=O)[C@H](CCN)NC(=O)[C@H](CO)NC(=O)[C@@H](Cc1c[nH]c2ccccc12)NC(=O)[C@@H](CO)NC(=O)CNC(=O)[C@@H](CCN)NC(=O)[C@H](N)C(C)C)C(C)C)C(=O)N[C@@H](C)C(=O)O	76 µg/mL
9. CC[C@H](C)[C@@H](NC(=O)[C@@H](NC(=O)[C@H](CCC(=O)O)NC(=O)[C@H](Cc1ccccc1)NC(=O)[C@@H](CCN)NC(=O)[C@H](CCN)NC(=O)[C@H](CO)NC(=O)[C@@H](Cc1c[nH]c2ccccc12)NC(=O)[C@@H](CO)NC(=O)[C@H](CCN)NC(=O)[C@@H](CCN)NC(=O)[C@H](N)C(C)C)C(C)C)C(=O)N[C@@H](C)C(=O)O	> 170 µg/mL
10. CC(C)[C@H](NC(=O)[C@H](CCC(=O)O)NC(=O)[C@H](Cc1ccccc1)NC(=O)[C@@H](CCN)NC(=O)[C@H](CCN)NC(=O)[C@H](CO)NC(=O)[C@@H](Cc1c[nH]c2ccccc12)NC(=O)[C@@H](CO)NC(=O)CNC(=O)[C@@H](CCN)NC(=O)[C@H](NC(=O)[C@H](C)N)C(C)C)C(=O)N[C@H](C)C(=O)N[C@@H](C)C(=O)O	47 µg/mL
11. O=C(O)c1cn(C2CC2)c2cc(N3CCNCC3)c(F)cc2c1=O	> 170 µg/mL
12. CC[C@H](C)[C@@H](NC(=O)[C@@H](NC(=O)[C@H](CCC(=O)O)NC(=O)[C@H](Cc1ccccc1)NC(=O)[C@@H](CCN)NC(=O)[C@H](CCN)NC(=O)[C@H](CO)NC(=O)[C@@H](Cc1c[nH]c2ccccc12)NC(=O)[C@@H](CO)NC(=O)CNC(=O)[C@@H](CCN)NC(=O)[C@H](NC(=O)CCCCCN)C(C)C)C(C)C)C(=O)N[C@@H](C)C(=O)O	> 170 µg/mL

---

# procedure text: Binding affinity to gram negative bacterial lipid II assessed as dissociation constant by ITC analysis
# Parameters: species or system Bacteria
quantity kind: Kd (nM)

1) CC[C@H](C)[C@@H](NC(=O)[C@@H](NC(=O)[C@H](C)NC(=O)[C@H](Cc1ccccc1)NC(=O)[C@@H](CCN)NC(=O)[C@H](CCN)NC(=O)[C@H](CO)NC(=O)[C@@H](Cc1c[nH]c2ccccc12)NC(=O)[C@@H](CO)NC(=O)CNC(=O)[C@@H](CCN)NC(=O)[C@H](N)C(C)C)C(C)C)C(=O)N[C@@H](C)C(=O)O	1220
2) CC[C@H](C)[C@@H](NC(=O)[C@@H](NC(=O)[C@H](CCC(=O)O)NC(=O)[C@H](Cc1ccccc1)NC(=O)[C@@H](CCN)NC(=O)[C@H](CCN)NC(=O)[C@H](CO)NC(=O)[C@@H](Cc1c[nH]c2ccccc12)NC(=O)[C@@H](CO)NC(=O)CNC(=O)[C@@H](CCN)NC(=O)[C@H](NC(=O)[C@H](C)N)C(C)C)C(C)C)C(=O)N[C@@H](C)C(N)=O	770

---

Entries and their hemolysis at 0.75 h, 400 ug/ml values follow.
# procedure text: Hemolytic activity in human red blood cells at 400 ug/ml incubated for 45 mins by spectrophotometric analysis relative to control
# Assay type: toxicity, cell-based, Erythrocyte
# conditions: red blood cells (erythrocytes), at 400 µg/mL, read-out: Activity
quantity kind: hemolysis at 0.75 h, 400 ug/ml (%)

1) CC[C@H](C)[C@@H](NC(=O)[C@@H](NC(=O)[C@H](CCC(=O)O)NC(=O)[C@H](Cc1ccccc1)NC(=O)[C@@H](CCN)NC(=O)[C@H](CCN)NC(=O)[C@H](CO)NC(=O)[C@@H](Cc1c[nH]c2ccccc12)NC(=O)[C@@H](CO)NC(=O)CNC(=O)[C@@H](CCN)NC(=O)[C@H](N)CCN)C(C)C)C(=O)N[C@@H](C)C(=O)O	0
2) CC(C)[C@H](NC(=O)[C@H](CCC(=O)O)NC(=O)[C@H](Cc1ccccc1)NC(=O)[C@@H](CCN)NC(=O)[C@H](CCN)NC(=O)[C@H](CO)NC(=O)[C@@H](Cc1c[nH]c2ccccc12)NC(=O)[C@@H](CO)NC(=O)CNC(=O)[C@@H](CCN)NC(=O)[C@H](NC(=O)[C@H](C)N)C(C)C)C(=O)N[C@@H](C(=O)N[C@@H](C)C(=O)O)C(C)(C)C	71.2
3) CC[C@H](C)[C@@H](NC(=O)[C@@H](NC(=O)[C@H](CCC(=O)O)NC(=O)[C@H](Cc1ccccc1)NC(=O)[C@@H](CCN)NC(=O)[C@H](CCN)NC(=O)[C@H](CO)NC(=O)[C@@H](Cc1c[nH]c2ccccc12)NC(=O)[C@@H](CO)NC(=O)CNC(=O)[C@@H](CCN)NC(=O)[C@H](NC(=O)[C@H](C)NC)C(C)C)C(C)C)C(=O)N[C@@H](C)C(=O)O	5.3
